test system: ducksalad (Heteranthera limosa); experiment: Test B flooded paddy test ducksalad; assay type: in vivo; conditions: Table B, Flood, 500 g ai/ha, scale 0 to 100
# Plant response rating per entry
// no unit, no text: just the number

Example entries begin here.
{"COMPOUND": "O=C1NCCC(c2cccc(C(F)(F)F)c2)C1C(=O)Nc1ccc(F)cc1F (racemic)", "EXPERIMENTAL_RESULT": 0}
{"COMPOUND": "O=C1NCCC(c2cccc(C(F)(F)F)c2)C1C(=O)Nc1cccc(Cl)c1Cl (racemic)", "EXPERIMENTAL_RESULT": 0}
{"COMPOUND": "O=C1NCCC(c2cccc(OC(F)F)c2)C1C(=O)Nc1ccc(F)c(F)c1F (racemic)", "EXPERIMENTAL_RESULT": 85}
{"COMPOUND": "O=C1NCCC(c2cccc(Cl)c2)C1C(=O)Nc1ccccc1F (racemic)", "EXPERIMENTAL_RESULT": 40}
{"COMPOUND": "O=C1NCCC(c2cccc(C(F)(F)F)c2)C1C(=O)Nc1ccccc1Cl (racemic)", "EXPERIMENTAL_RESULT": 40}

Attention now turns to another entry.
input: # value lookup — system ducksalad (Heteranthera limosa), readout Plant response rating, item O=C1NCCC(c2cccc(OC(F)F)c2)C1C(=O)Nc1cccc(F)c1F (racemic)
output: 100

All values here come from patent US9944602B2.
